Attribution: the supplement of paper PMC12042874

- experiment-description: amyloid nucleation score (Sup35N fusion, yeast selection) (log enrichment); library NNK2; higher = more nucleation; inactive = no reads after selection;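 further: zero at mode of non-aggregating sequences after 7 days selection at 30°C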
experimental-endpoint: amyloid nucleation score

Consider the following illustrative entries.
substance | value
GLKNRVWL | 1.05
ERVQMFQIRVQSAYVVFGVS | 4.75
YVFLWWLKFCFGYH | inactive
ITNDLSLYYVARVGRTDYHF | 1.13
PRCNGHY | inactive
PVGFDHNF | -0.451
GETVHREYLAGWMALSSRRR | 2.47
SACVWVNICTSASNGDPG | 7.45
ILWPLHVWYVICYRSNMWSY | 5.27
FSAVHAHQQNLLVVFYTCCA | 3.97

Quick one: give measured amyloid nucleation score for `NEVRYLGTVLACQQRLHTWM` 1.06

Quick one: give measured amyloid nucleation score for `ATVRLHNGFG` 0.127

Quick one: give measured amyloid nucleation score for `AYLLWVRYIYEHDSTIGWLI` inactive

Quick one: give measured amyloid nucleation score for `LSIRWLTSCYLYGLLGSSGK` 0.256

Quick one: give measured amyloid nucleation score for `WEASCVNPH` -0.191

Quick one: give measured amyloid nucleation score for `WLLFMS` -0.353

Quick one: give measured amyloid nucleation score for `HVYFSCAYWQPVYMYCCGKQ` 7.77

Quick one: give measured amyloid nucleation score for `MRLLILDPYAREQ` inactive

----------
// reported amyloid nucleation score per item
- experiment-description: amyloid nucleation score (Sup35N fusion, yeast selection) (log enrichment); library NNK2; higher = more nucleation; inactive = no reads after selection
// return a plain number; no unit text

Consider the following illustrative entries.
substance | value
KVELYYWVSTLSVCSLALYS | 6.07
IRADIHKLHLTIIYFKPPLV | -0.47
HILICFWRVQVLKSACLYWT | 1.74
SKLMQVRRGVLSGYLSESDE | -0.149
ANGVSILDFRKHATFWWWET | -0.103

Quick one: give measured amyloid nucleation score for `TITMFHYLRSLSGNSDYGLG` 2.31

----------
- experiment-description: amyloid nucleation score (Sup35N fusion, yeast selection) (log enrichment); library NNK2; higher = more nucleation; inactive = no reads after selection
experimental-endpoint: amyloid nucleation score
// return a plain number; no unit text

Consider the following illustrative entries.
sequence-code | experimental-endpoint | value
VVRYLPCRRLPVWWVVCYEI | amyloid nucleation score | 0.488
VTVRSFTNIRSTFKLDSPLL | amyloid nucleation score | 0.122
SIRARGLAMRSYSPT | amyloid nucleation score | -0.093
PAVFRHHPGKHVRHGSSTTT | amyloid nucleation score | 0.73
DVVNVSYGPVITFMSVFRVS | amyloid nucleation score | 7.56
WRLCVWPRCGTAKLS | amyloid nucleation score | 0.24

Quick one: give measured amyloid nucleation score for `FWGGDLRACSCGQGIEFAGR` 3.7

Quick one: give measured amyloid nucleation score for `DICVKSRRSRPRV` 0.591

----------
- experiment-description: amyloid nucleation score (Sup35N fusion, yeast selection) (log enrichment); library NNK3; higher = more nucleation; inactive = no reads after selection
experimental-endpoint: amyloid nucleation score

Consider the following illustrative entries.
substance | amyloid nucleation score
CSDATIGQNSGSHDQLNRSD | inactive
YPNIERFTETWISYVDQNRG | -0.083
TRHSHLCS | inactive
LGYPCFSKWFVYSRSIGLEG | inactive
APENKVYVRAQVKTACKFRG | 0.213

Quick one: give measured amyloid nucleation score for `NVIISQA` inactive

Quick one: give measured amyloid nucleation score for `IMSNTLIHYLHRMLSSALCY` inactive

Quick one: give measured amyloid nucleation score for `VMTIGTRV` inactive

----------
- experiment-description: amyloid nucleation score (Sup35N fusion, yeast selection) (log enrichment); library NNK3; higher = more nucleation; inactive = no reads after selection
experimental-endpoint: amyloid nucleation score

Consider the following illustrative entries.
substance | amyloid nucleation score
AVLKILFVRPCYVINMSLKY | 0.199
MNWYRIFVVNFSCKRLYSVK | 1.64
YNCFDDNTYPYSANGSRNSL | inactive
RHGLAWTYVKKSKMRTAAGR | inactive
IILFKCWCKWEASGSATIVD | inactive
LHASMLLLRNNRSRS | inactive
ISIFSIRNMVYNLQVRLVLE | inactive
AMCALVSIRP | inactive

Quick one: give measured amyloid nucleation score for `PDAHTKMT` 0.603

Quick one: give measured amyloid nucleation score for `QHSLGG` inactive

Quick one: give measured amyloid nucleation score for `SAESKISIVWMEVRINNIFR` 1.67

Quick one: give measured amyloid nucleation score for `LNGSAHYRGCCLKRRTICWM` inactive

Quick one: give measured amyloid nucleation score for `HGTIVIDYRHSPW` 1.07

----------
- experiment-description: amyloid nucleation score (Sup35N fusion, yeast selection) (log enrichment); library NNK1; higher = more nucleation; inactive = no reads after selection
Binary call on amyloid nucleation score: Fulfilled from 0.1 upward, Not fulfilled beneath that.

Reference set (5 entries):
substance | category
YSNFFQHRTWMIDCSFPTGL | Fulfilled
MTEQAQ | Fulfilled
VVDMTVGFENARCGMREVWT | Not fulfilled
DNGGFDPWWCWNRLRWWRGG | Fulfilled
YLMKRSWTGMIGLGTQVKSS | Fulfilled

Assess whether reported amyloid nucleation score for `GILYQV` sits at 0.1 or higher. Not fulfilled

Assess whether reported amyloid nucleation score for `YVIMWGGLTLYLWGCRKWWE` sits at 0.1 or higher. Not fulfilled

Assess whether reported amyloid nucleation score for `PTRLPYGTSLIWDTSHANWG` sits at 0.1 or higher. Not fulfilled

----------
- experiment-description: amyloid nucleation score (Sup35N fusion, yeast selection) (log enrichment); library NNK1; higher = more nucleation; inactive = no reads after selection
experimental-endpoint: amyloid nucleation score
// return a plain number; no unit text

Consider the following illustrative entries.
substance | value
IPWPRTPSSSGMHAL | 4.81
THDLRLMIGHDCDTVNGYSR | -0.725
HLYGVR | 0.267
GIWCFACMSKFMYTRFSYN | -1.02
FCLNLQYRSKMMHRANICL | 0.159
RWSLGGICVYVGLNEFVLMI | 2.56
TPANNVRISFIWFL | 3.54

Quick one: give measured amyloid nucleation score for `TVVYDWFG` -0.078

----------
- experiment-description: amyloid nucleation score (Sup35N fusion, yeast selection) (log enrichment); library NNK3; higher = more nucleation; inactive = no reads after selection
experimental-endpoint: amyloid nucleation score

Consider the following illustrative entries.
sequence-code | amyloid nucleation score
LVGYRAQLHGVNYSMFVGIS | inactive
TDAIVFMEHSDVGRSSLDWN | inactive
IHMPHLGIGSKKRVSVRGDA | inactive
LFGYDSISLINRGCVGGFNV | inactive
RSHQKEMCVNFNLPVNFSHR | inactive
QWVVEHRFWLVYNGEHRNSY | 0.762

Quick one: give measured amyloid nucleation score for `VKFMMPRVDIWFKDGVRRYT` inactive

Quick one: give measured amyloid nucleation score for `DTVMRSVLEAIVYINKIFVR` inactive

Quick one: give measured amyloid nucleation score for `IYRLFSARDDIVKDWRR` inactive

Quick one: give measured amyloid nucleation score for `YCVWLVSKTISWFQTVFI` inactive

Quick one: give measured amyloid nucleation score for `VYLDYGGLHLRVLHTCRFYC` inactive

----------
- experiment-description: amyloid nucleation score (Sup35N fusion, yeast selection) (log enrichment); library NNK2; higher = more nucleation; inactive = no reads after selection
experimental-endpoint: amyloid nucleation score
// return a plain number; no unit text

Consider the following illustrative entries.
substance | amyloid nucleation score
VKLIETSLLSFLIE | -0.33
SCRLLDSFDPMSRGKSSQRR | -0.003
YVFLGD | 2.35

Quick one: give measured amyloid nucleation score for `YFVSSC` -1.23

Quick one: give measured amyloid nucleation score for `TSSLYISMMVLL` 4.07

Quick one: give measured amyloid nucleation score for `INSAGNLPQERTVLGYFHCS` -1.44

----------
- experiment-description: amyloid nucleation score (Sup35N fusion, yeast selection) (log enrichment); library NNK2; higher = more nucleation; inactive = no reads after selection
// reported amyloid nucleation score per item

Consider the following illustrative entries.
sequence-code | amyloid nucleation score
VRLFLPHIYKMSLRDGGFEP | -0.349
IMPNLAPGCRIRAIVND | -0.006

Okay, next one:
Quick one: give measured amyloid nucleation score for `HERGTNVLYTLVEWGARAVS` 1.16

----------
- experiment-description: amyloid nucleation score (Sup35N fusion, yeast selection) (log enrichment); library NNK2; higher = more nucleation; inactive = no reads after selection
// reported amyloid nucleation score per item
// return a plain number; no unit text

substance | experimental-endpoint | value
NEYGLLYVFIPSSISPLADI | amyloid nucleation score | -1.5
VEFLPCLSIYSACFSLDGST | amyloid nucleation score | -1.37
THVECALMTYPDVYSDEGFI | amyloid nucleation score | -0.001
THMYCIMVYRRYSGSVGLGY | amyloid nucleation score | 0.127
EYYINFVNNTFCVDSLRSLD | amyloid nucleation score | 5.07

Quick one: give measured amyloid nucleation score for `FRLFVKNKGRELICDLWVCT` -0.024

Quick one: give measured amyloid nucleation score for `LSVFVSGAPQIKLSNMVVKN` -0.348

Quick one: give measured amyloid nucleation score for `YPMNSVPDI` -0.858

Quick one: give measured amyloid nucleation score for `IESSVCPGRRPGLLPTLKAG` 0.901

Quick one: give measured amyloid nucleation score for `FNGSYASILKTSNRDTFDAL` 0.61

Quick one: give measured amyloid nucleation score for `GVRRRRIRRWLNVSGRYMCE` 2.38

Quick one: give measured amyloid nucleation score for `EIEEYWGV` -0.125

Quick one: give measured amyloid nucleation score for `PALTIEIMSYGASQHGFSLV` 0.367

Quick one: give measured amyloid nucleation score for `VSLRSDSGLGITVLMPPSRS` 1.6

Quick one: give measured amyloid nucleation score for `RKDSCCSVNRCDAMSFVRGI` 0.073

Quick one: give measured amyloid nucleation score for `SCHWNVTRGRWNTKHNLRPK` 1.06

Quick one: give measured amyloid nucleation score for `SYDLPPFI` 2.57

Quick one: give measured amyloid nucleation score for `IFKINVVVSSNTAQ` 2.4

Quick one: give measured amyloid nucleation score for `DSEPVYYTVNFNQLLSRLYY` 1.52

Quick one: give measured amyloid nucleation score for `KHGSMVICKPAIYTVLT` -0.021

Quick one: give measured amyloid nucleation score for `CVSSARNIHFNGVVKCVRYR` 2.79

Quick one: give measured amyloid nucleation score for `SGSKGRASVNIIDR` 0.131

Quick one: give measured amyloid nucleation score for `LLTRLKGGPPARAPHSTSGL` 1.91

Quick one: give measured amyloid nucleation score for `HLWGTKFMAFVARFV` -0.12

Quick one: give measured amyloid nucleation score for `NNWYQTGSVAEASIEPSSMQ` 1.6

Quick one: give measured amyloid nucleation score for `SSSTFCCLWTFDTRVQFLVN` 7.39

Quick one: give measured amyloid nucleation score for `LMGLQMSLPWSNEIVRVIPD` -0.663

Quick one: give measured amyloid nucleation score for `IYRCIYRTPMLLGLYFNGPV` -0.791
